Experiment: protein stability index of a GFP-peptide fusion (GPS, HEK-293T) (PSI 1-6); higher = more stable;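 further: 24-mer peptide tiles fused after GFP, lentivirally expressed, FACS-sorted into six equal bins by GFP/DsRed ratio, decoded by Illumina sequencing, PSI is the read-weighted mean bin number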
Details: treatment: DMSO; c terminus: a fixed tail appended
Assign class by protein stability index: not lower than 3 means yes; lower than 3 means no.

Use these answered entries as a reference point.
macromolecule_sequence="LLCNAITGITLLRVKFKSQQHRQG [PTGFR]" classification=no
macromolecule_sequence="VPQLVTGRCATRAFHRKSHSLDLN [RNF180]" classification=no
macromolecule_sequence="AEKLCIYTDNSIRPEELLQMELLL [CCND1]" classification=no
macromolecule_sequence="SAEELRKARSNSTLSKSEYMVIEE [KCNA3]" classification=yes
macromolecule_sequence="RACSHLIRLMQRCWQGDPRVRPTF [RIPK4]" classification=no
macromolecule_sequence="SLQDASRGDPAHAGLAELGHRLAQ [PBXIP1]" classification=yes
macromolecule_sequence="SFQLEISGFLKEMACPYSVLISGD [FAM98B]" classification=no
macromolecule_sequence="LLKDKVRERIQILKTSEVTQHLPR [PTPN9]" classification=no

State whether the measured protein stability index reaches 3, counting equality as reaching it, for SDGWWRGSYNGQIGWFPSNYVLEE [NCK2]
no

Would you say MRLPLPPAQVHSSLSAGEKPGFLA [RASAL3] shows protein stability index at minimum 3?
yes

Given RGNRLKTTSWGLLSLGALVALCWQ [SCNN1D] , state whether its protein stability index is at least 3.
no

Reported protein stability index reaches at least 3 for GATTLGDMIYVSGGFDGSRRHTSM [KLHL12] ?
no

Check if protein stability index >= 3 (inclusive). Item: YEDTNGQPQALLVDGDQSKILISG [TNXB]
yes

Reported protein stability index reaches at least 3 for KDVMEKREDSKEAEKSGEATDGAR [CHGA] ?
yes

Has NDKFSFHEVKDNYIPVIKRALNSV [RHOBTB3] a recorded protein stability index greater than or equal to 3?
no

# check: protein stability index of RYNFTPDPDFKDLGALKPLPACEF [NETO1] is greater than or equal to 3
no

Hi team, for SGLIYLTNHIAPHARNGLSLKEEH [IKZF1] , is the recorded protein stability index at or above 3?
no

Reported protein stability index at or above 3? CQGVSEAAHRLARRLYHLEGFQRC [PSD2]
no

Exam item: decide whether the reported protein stability index for EESEKAMQERVQRLEAARLSLEEE [LRRC45] is at least 3.
yes

Exam item: decide whether the reported protein stability index for ELVYADDYIMDEDQSKLAGLLDLN [ESRRG] is at least 3.
yes

Hello, I need to know if MTSISLPSVMDPGAFETVLASAYT [ZBTB22] has measured protein stability index not below 3. Thanks!
no

Hello, I need to know if YTRLGEMNNAVRNLQELLELDSSS [CEP70] has measured protein stability index not below 3. Thanks!
yes

Evaluate SQSFSLYVKYQVAIHQDPPDECGK [ATE1] : protein stability index at minimum 3?
no

Identify whether the reported protein stability index of the following sequence is 3 or greater: KLPFCAMGVSSVIHPKNPHAPTIH [CPOX]
no

Threshold query (protein stability index >= 3) on CETCVGSWSIQMRQHHHQSSFPGS
no

Given GYSGTSDRIRFTVNRRISIVGFGL [BTBD1] , state whether its protein stability index is at least 3.
no

# check: protein stability index of GFQPPSPSLRPRPASSISLPIGHL [DMRTC1] is greater than or equal to 3
yes

Values from the supplement of paper PMC10567573
